# Test system: UO-31 renal
# assayProtocol: NCI tumour cell line growth inhibition, 48 h
experimentalReadout: TGI (µM)
All answers are understood in µM, so give the number only.

Item `CCN1CCN(c2nc3ccc([N+](=O)[O-])cc3nc2C(=O)c2ccccc2)CC1` with UO-31 renal - TGI? 25.2

Can you look up TGI on UO-31 renal for `CN(C)c1ccccc1CN1CCCN(Cc2ccccc2N(C)C)C1c1ccncc1` ? 13.9

Request - read-out TGI | tested on UO-31 renal | molecule N#CSCC1CC(O)(c2ccccc2)CC(c2ccc(F)cc2)O1 (stereo not drawn) 6.03

Hi! What's the reported TGI for `Cc1noc2nnn(-c3ccc(Cl)cc3)c(=O)c12` on UO-31 renal? 8.63

Find TGI (UO-31 renal) for the entry COCOc1c(C(O[Si](C)(C)C(C)(C)C)c2cnc(Sc3ccccc3)n2C)ccc(OC)c1OC (stereo not drawn) 3.32

---

# System: NCI-H226 lung
# assayProtocol: NCI tumour cell line growth inhibition, 48 h
experimentalReadout: GI50

Would you kindly share the measured GI50 for `COc1ccc(Nc2c3ccccc3nc3ccccc23)cc1` ? 1.2 µM

May I ask what GI50 has been recorded for `CO/N=C(\C)COc1ccc2c(=O)c(-c3ccccc3)coc2c1` ? 36.4 µM

Tell me the measured GI50 of `COc1cc2c(cc1C)NC(=O)/C2=C\c1cccc(Oc2ccccc2)c1` , please. 21 µM

Which GI50 value is on record for `CCNC(=O)c1cc2c(-c3cc(C(C)(C)O)ccc3Oc3c(C)cc(F)cc3C)cn(C)c(=O)c2[nH]1` ? 2.64 µM

Which value of GI50 has been reported for `COc1cc2c(cc1Nc1nc(Nc3ccsc3C(N)=O)c3cc[nH]c3n1)N(C(=O)CN(C)C)CCC2(C)C` in the records? 0.763 µM

Fill blank: measured GI50 of the compound `COc1cc(C2=C(C#Cc3ccccc3)COC2=O)cc(OC)c1OC` is ____. 1.73 µM

For `O=C(Nc1ccccc1)NS(=O)(=O)c1ccc(-n2nc3c(c2-c2ccc(Cl)cc2)Cc2ccccc2-3)cc1` , what is its reported GI50? 15.5 µM

Fill in: GI50 of `O=[N+]([O-])c1c(Br)sc(Br)c1[N+](=O)[O-]` is ___ 3.18 µM

Record request: GI50 value, item `Cc1cc(Cl)ccc1NC(=O)c1cc2ccccc2cc1O` 0.93 µM

Item under review: `COc1ccc(OC)c(/C=C(/C)[N+](=O)[O-])c1` . Reported GI50? 13.8 µM

So what's the measured GI50 for this one? `O=C(NCc1ccc(Cn2c(=O)sn(-c3ccccc3)c2=O)cc1)OCc1ccc2c(Br)cc(Br)c(O)c2n1` 1.02 µM

For `CCCCCCCCCCCCCC[n+]1ccc2c(C)c3c(c(C)c2c1)c1cc(O)ccc1n3CC` , what is its reported GI50? 0.418 µM

GI50 for `COc1ccc2c(c1)C(=O)c1c-2c(Nc2ccc(Cl)cc2)nc2ccccc12` ? 10.3 µM

Report GI50 for `COC(=O)C1=C(C)NC(C)=C(C(=O)OC)C1/C=C(Cl)/C=C/c1ccccc1` please. 24.8 µM

For `O=C1/C(=C/c2ccc(Cl)cc2)N=C(c2ccccc2)N1CCc1cccs1` , what is its reported GI50? 21.2 µM

Given the compound CCCCCCCCCCCC1CCCC(C)N1 (stereo unspecified) , what is its reported GI50? 16.7 µM

---

# Tested on: EKVX NSCLC
# assayProtocol: NCI tumour cell line growth inhibition, 48 h; in the data active means GI50 below about 0.43 µM; inactive means the rest
I would appreciate it if you answered using one of these outcomes: class 1 = active, class 0 = inactive

Write down the call the test reported for this compound. Item: `C[C@@H](CO)[C@@H]1CCC=C2CC[C@]3(C)[C@H](CC[C@@H]4[C@@]5(C)CCCNC(C)(C)[C@@H]5CC[C@]43C)[C@H]21` class 0

Dear all, I need the recorded test outcome for CCN(C(=O)c1cc(F)ccc1Oc1cncnc1N1CC2(CCN(CC3CCC(NS(=O)(=O)CC)CC3)CC2)C1)C(C)C (stereo not given) , thank you. class 0

Dear all, I need the recorded test outcome for CN1c2ccccc2C(C)(C)C12C=Cc1cc(O)ccc1O2 (stereo not given) , thank you. class 0

Status in this test for `O=C(Nc1ccccc1)NS(=O)(=O)c1ccc(-n2nc3c(c2-c2ccc(Cl)cc2)Cc2ccccc2-3)cc1` ? class 0

Could you kindly confirm the outcome this assay logged for `Cn1ccnc1C(=O)/C=C/c1ccccc1` ? class 0

Would you mind telling me which call this test gave `COc1ccc(OC)c(/C=C(/C)[N+](=O)[O-])c1` ? class 0

In this assay, the call recorded for CC(=Nc1ccccc1)C1=C(O)C(Cc2ccccc2)NC1=O (stereo not given) was what? class 1

Write down the call the test reported for this compound. Item: `Cc1cc(N(CCNc2ccnc3cc(Cl)ccc23)Cc2ccco2)nc(Cl)n1` class 0

Dear all, I need the recorded test outcome for `CC(C)CCN=C(N)c1ccc(N2CCN(c3ccc(C(N)=NCCC(C)C)cc3)CC2)cc1` , thank you. class 0

Hello, I am checking results. What call was entered for `COc1cc(O)c(C(=O)/C=C/c2ccc(O)cc2)c(O)c1[C@@H]1C[C@H](CCc2ccc(O)cc2)O[C@H](c2ccc(O)cc2)C1` ? class 0

---

# Test system: HT29 colon
# assayProtocol: NCI tumour cell line growth inhibition, 48 h
So basically: TGI at 6 µM or higher? That is True. Lower than 6 µM? That is False.

Determine whether measured TGI meets or exceeds 6 µM for `Nc1nc(-c2ccccc2)nc2c1[n+]([O-])c1ccccc1[n+]2[O-]` True

Answer whether TGI of `Nc1[nH]c(=S)nc2snnc12` is greater than or equal to 6 µM. True

Is reported TGI greater than or equal to 6 µM here: `Cc1cc(C)nc(NS(=O)(=O)c2ccc(Nc3c4ccc(Cl)cc4nc4c(C(=O)Nc5ccc(S(N)(=O)=O)cc5)cccc34)cc2)n1` True

Could you please find out whether CC(=O)O[C@@H]1C2=C(C)C=C(O2)[C@H]2O[C@]2(C)C[C@H]2C=C(C(=O)O2)[C@H](OC(C)=O)CC1[C@@]1(C)CO1 (stereo not given in full) has TGI that meets 6 µM or exceeds it? True

Is TGI for `Nc1nc(-c2ccc(F)cc2)c(-c2ccc3ncccc3n2)s1` at or above 6 µM? True

Does the reported TGI for CC(=O)OC(CCC1(C)OC1COc1ccc(CCNC(=O)c2ccccc2)cc1)C(C)(C)OC(C)=O (stereo not given) fall at or above the 6 µM mark? True

# bool: TGI of `O=C1/C(=C/c2cccc(Br)c2)CSC/C1=C\c1cccc(Br)c1` >= 6 µM False

Could you tell me if the measured TGI of `CN(C)c1ccc(Nc2cc(-c3cccc(OC(F)(F)F)c3)nc3ccc(N4CCCC4)cc23)cc1` reaches 6 µM or more? False

# check: TGI of CC1(Cl)CCC2(CC(Br)=CC3OC32C)CC1Br (stereo not given) is greater than or equal to 6 µM True

Is TGI at least 6 µM? Consider `CCCCNC(=S)Nc1nc(C(=O)NNC(=S)NC2CCCCC2)cs1` True

---

# Tested on: HCT-15 colon
# assayProtocol: NCI tumour cell line growth inhibition, 48 h
experimentalReadout: log10 TGI (log10 of the value in µM)
In our notation, the value equals log10 of TGI in µM.

Given the entry COC(=O)C1=C(O)C(C(=O)OC)[C@]2(O)[C@H](C(=O)OC)[C@H]1C[C@@H](c1c(Cl)cccc1Cl)[C@H]2C(=O)OC (stereo partly specified) , what log10 TGI was observed with HCT-15 colon? 0.65

// map Cc1occc1C(=S)Nc1ccc(Cl)c(C(=O)OC(C)C2CC2)c1 (stereo unspecified) to recorded log10 TGI (system: HCT-15 colon) 1.61

Item CN1c2ccccc2C(C)(C)C12C=Cc1cc(O)ccc1O2 (stereo unspecified) with HCT-15 colon - log10 TGI? 1.15

Request: log10 TGI, test system HCT-15 colon, entry `C=C1CC/C=C(\C)C(=O)C[C@@H]2[C@@H]1CC2(C)C` 0.51

// fetch HCT-15 colon log10 TGI for CCCCCCCCCCCCOP(=O)(O)OCC(N)C(=O)O (stereo unspecified) 1.56

Request body: readout log10 TGI, system HCT-15 colon, query `COc1cc(Nc2ccnc(NCCCNc3ccnc4cc(Cl)ccc34)n2)cc(OC)c1` . Return the value. 0.49

---

# Test system: M14 melanoma
# assayProtocol: NCI tumour cell line growth inhibition, 48 h
Field: TGI. Provide a value for each of the compounds that follow.
Provide the reading as a plain figure in µM.

Reported TGI for `CC(C)CCN=C(N)c1ccc(N2CCN(c3ccc(C(N)=NCCC(C)C)cc3)CC2)cc1` : what is it? 29.6

Would you kindly share the measured TGI for `Cn1ccnc1C(=O)/C=C/c1ccccc1` ? 10.4

Query (compound): CC(=Nc1ccccc1)C1=C(O)C(Cc2ccccc2)NC1=O (configuration not stated) ; field requested: TGI 0.102

Query (compound): `CSc1c(C#N)c(N)nc2c(N=Nc3ccc(Cl)cc3)c(N)nn12` ; field requested: TGI 47.6

Consider the compound shown here: `COc1cc(C2=C(C#Cc3ccccc3)COC2=O)cc(OC)c1OC` What is its recorded TGI? 11.7

May I ask what TGI has been recorded for `CN(C)c1ccc(Nc2cc(-c3cccc(OC(F)(F)F)c3)nc3ccc(N4CCCC4)cc23)cc1` ? 3.32

What TGI value was documented for this compound, `Nc1nc(-c2ccccc2)nc(N)c1N=O` ? 19.5

Param item = `O=C(/C=C/c1cc([N+](=O)[O-])ccc1Cl)c1ccccc1` ; retrieve measured TGI. 22.5

Need TGI of `Oc1[nH]c2ccc(Cl)cc2c1/C=c1/ccc2c(c1)N=C(c1ccc(F)cc1)N=2` , thanks. 2.98
